experiment: small-molecule microarray binders of probe aWnt5a, primary screen, biochemical, biotinylated probe, 635/667 nm fluorescence (AID 1113); settings: higher = more signal;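 also: score merges 667 nm fluorescence intensity with signal-to-noise per printed feature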
Exercise: state measured composite z-score for each of the compounds provided.
Form: value (number only, do not type unit).

May I ask what composite z-score has been recorded for C=C(CCCC)C(=O)CC[C@H](OC(=O)c1ccccc1-c1ccccc1C(=O)O)c1cccc(OCCO)c1 ?
-0.13

Would you mind telling me what composite z-score value was observed for CN1C(=O)C2C=CC(C(O)c3ccc(I)cc3)N(N(c3ccccc3)c3ccccc3)C2C1=O (configuration not stated) ?
-0.0735

Could you share which composite z-score value was measured for COc1ccc(C(O)C2C=CC3C(=O)N(C)C(=O)C3N2Nc2ccccc2)cc1 (configuration not stated) ?
0.0792

Sample C=C[C@H](C)[C@@H](OC(=O)Nc1ccc(SC)cc1)c1ccc(OCCO)cc1 — what was its composite z-score?
-0.0792

Given COc1cc(Cc2cc3c(c(CCc4ccccc4)n2)[Si](C(C)C)(C(C)C)O[C@H]3c2ccccc2)cc(OC)c1OC , state its recorded composite z-score.
-0.0107

// query composite z-score value for entry COC(=O)[C@@]1(Cc2ccc(F)cc2)[C@H]2c3cc(C(=O)N(C)C)n(Cc4ccc(C(F)(F)F)nc4)c3C[C@H]2CN1C(=O)c1ccccc1
0.15

Requested field: composite z-score. Item: CC[C@@H](O[Si](C#C[Si](C(C)C)(C(C)C)C(C)C)(C(C)C)C(C)C)c1cn(Cc2cccc(Cl)c2)nn1
-0.0194
